Reference for the values: patent US20220298235A1

Molecular target: T1, Human IL12 (His Tag) (human, UniProt P29459 23-219; P29460 23-328)
T1 construct: Bought His-tagged heterodimer
T1 sequence (looked up) 1: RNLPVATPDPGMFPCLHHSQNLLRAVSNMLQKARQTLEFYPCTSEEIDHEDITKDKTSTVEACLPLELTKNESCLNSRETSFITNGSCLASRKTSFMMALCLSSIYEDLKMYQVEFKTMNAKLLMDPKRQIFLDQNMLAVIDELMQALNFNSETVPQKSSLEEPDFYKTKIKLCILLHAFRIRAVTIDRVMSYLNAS
T1 sequence (looked up) 2: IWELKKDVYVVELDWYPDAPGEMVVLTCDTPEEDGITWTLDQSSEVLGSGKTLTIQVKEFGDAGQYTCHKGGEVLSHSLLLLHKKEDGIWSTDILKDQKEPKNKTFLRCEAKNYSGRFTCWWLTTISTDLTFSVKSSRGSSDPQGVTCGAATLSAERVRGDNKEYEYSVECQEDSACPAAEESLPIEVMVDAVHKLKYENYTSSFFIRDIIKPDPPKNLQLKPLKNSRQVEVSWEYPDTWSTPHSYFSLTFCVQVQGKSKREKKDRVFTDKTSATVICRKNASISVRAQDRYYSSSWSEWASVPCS
Test: FACS competition, IL-12-His 20 nM on 293T-IL-12Rβ1&IL-23R cells; antibody 1.11 µg/mL
MFI reference
Kindly answer with a numeric value in MFI, unit omitted.

Example results:
binder: H5L14 (antibody, human IgG1, kappa, V domains shown, human IgG1 / kappa constant regions; also called humanized antibody H5L14) VH: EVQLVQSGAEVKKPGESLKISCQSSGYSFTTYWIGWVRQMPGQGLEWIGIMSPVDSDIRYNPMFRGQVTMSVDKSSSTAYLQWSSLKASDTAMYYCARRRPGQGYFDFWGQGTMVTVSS VL: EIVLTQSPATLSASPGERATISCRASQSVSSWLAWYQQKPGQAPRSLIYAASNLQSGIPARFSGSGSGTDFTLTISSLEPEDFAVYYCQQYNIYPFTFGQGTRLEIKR
MFI (MFI): 66

binder: ustekinumab (antibody, V domains shown) VH: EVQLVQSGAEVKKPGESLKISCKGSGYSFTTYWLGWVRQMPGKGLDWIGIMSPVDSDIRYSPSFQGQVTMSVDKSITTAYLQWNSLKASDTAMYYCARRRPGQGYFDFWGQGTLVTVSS VL: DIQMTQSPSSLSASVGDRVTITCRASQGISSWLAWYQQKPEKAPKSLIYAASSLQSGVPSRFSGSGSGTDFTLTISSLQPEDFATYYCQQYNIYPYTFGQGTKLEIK
MFI (MFI): 31.9

Now look at this one.
Q. Dear colleague, I am looking for the recorded MFI of the following binder: H5L9 (antibody, human IgG1, kappa, V domains shown, human IgG1 (P01857) / kappa (P01834) constant regions; also called humanized antibody H5L9) VH: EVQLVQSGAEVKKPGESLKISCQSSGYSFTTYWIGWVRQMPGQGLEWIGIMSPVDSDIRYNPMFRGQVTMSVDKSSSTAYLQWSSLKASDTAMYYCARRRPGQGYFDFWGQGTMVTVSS VL: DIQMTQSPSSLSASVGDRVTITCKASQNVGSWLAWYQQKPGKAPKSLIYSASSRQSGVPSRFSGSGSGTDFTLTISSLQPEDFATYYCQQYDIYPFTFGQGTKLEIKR
A. 157
